# tested target: Hs-Nb(II) (Homo sapiens, UniProt Q8WY91)
# Construct: Homo sapiens Nb (Hs-Nb) is the C-terminal domain of the THAP4 protein; made in house
# Sequence (Q8WY91 415-577 limits assumed): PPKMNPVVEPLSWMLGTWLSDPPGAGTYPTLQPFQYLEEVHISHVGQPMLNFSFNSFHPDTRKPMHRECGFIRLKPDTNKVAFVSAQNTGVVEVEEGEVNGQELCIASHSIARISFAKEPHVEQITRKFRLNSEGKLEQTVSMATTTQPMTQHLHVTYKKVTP
# assay notes: CO binding to and dissociation from Hs-Nb(II) by rapid-mixing stopped-flow (incl. CO displacement by NO)
# protocol conditions: Hs-Nb(II), pH 7.0, 25.0 °C; read-out: K (=koff/kon) for CO

molecule smiles	Kd, µM
[C-]#[O+]	38
